subject.of.test: Prostaglandin G/H synthase 1 (Ovis aries)
Sequence (P05979 whole entry): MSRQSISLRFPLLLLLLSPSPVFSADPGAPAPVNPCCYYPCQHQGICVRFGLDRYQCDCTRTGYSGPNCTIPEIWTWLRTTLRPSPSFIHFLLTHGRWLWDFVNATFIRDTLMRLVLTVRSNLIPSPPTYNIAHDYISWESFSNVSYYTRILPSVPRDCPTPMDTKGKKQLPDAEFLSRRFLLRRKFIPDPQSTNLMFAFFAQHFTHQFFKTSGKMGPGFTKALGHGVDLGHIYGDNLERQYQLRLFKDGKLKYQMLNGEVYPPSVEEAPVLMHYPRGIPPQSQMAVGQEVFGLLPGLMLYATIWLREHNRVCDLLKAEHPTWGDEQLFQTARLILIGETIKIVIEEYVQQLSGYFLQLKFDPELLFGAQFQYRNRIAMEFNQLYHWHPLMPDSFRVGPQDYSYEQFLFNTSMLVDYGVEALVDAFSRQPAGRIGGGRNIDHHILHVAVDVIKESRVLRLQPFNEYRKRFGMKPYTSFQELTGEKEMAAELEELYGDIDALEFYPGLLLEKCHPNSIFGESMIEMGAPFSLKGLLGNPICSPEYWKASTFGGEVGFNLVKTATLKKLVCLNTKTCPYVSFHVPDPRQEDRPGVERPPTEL
readout.type: pIC50
// pIC50: -log10(molar conc.)

Query block: Give Prostaglandin G/H synthase 1 (Ovis aries) pIC50 for COc1cc2cc(C(C)(C)O)oc2c2c1C=COC=C2
Result block: 4.52
